Recorded measurements of Mean % WT Binding, one per entry
- experimental-target: human CD33 N99A (human, UniProt P20138 18-364)
- Sequence (P20138 18-364 N99A limits assumed): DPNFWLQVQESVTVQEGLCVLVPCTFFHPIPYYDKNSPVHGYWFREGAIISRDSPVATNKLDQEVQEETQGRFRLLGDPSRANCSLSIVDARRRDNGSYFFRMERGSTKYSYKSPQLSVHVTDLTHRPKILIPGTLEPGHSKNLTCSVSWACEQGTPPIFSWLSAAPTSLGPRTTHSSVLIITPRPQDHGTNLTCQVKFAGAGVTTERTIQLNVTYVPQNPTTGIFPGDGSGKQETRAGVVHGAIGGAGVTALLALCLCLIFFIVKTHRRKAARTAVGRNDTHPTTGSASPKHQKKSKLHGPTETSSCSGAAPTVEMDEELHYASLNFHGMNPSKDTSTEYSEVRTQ
- test-protocol: flow cytometry on HEK293-T, alanine scan

| binder | Mean % WT Binding |
| --- | --- |
| Refmab #4 (antibody, V domains shown, The alanine scan used IgG or Fab) VH: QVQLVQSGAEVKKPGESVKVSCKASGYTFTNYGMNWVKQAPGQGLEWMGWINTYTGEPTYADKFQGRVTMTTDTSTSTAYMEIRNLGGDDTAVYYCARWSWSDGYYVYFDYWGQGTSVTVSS VL: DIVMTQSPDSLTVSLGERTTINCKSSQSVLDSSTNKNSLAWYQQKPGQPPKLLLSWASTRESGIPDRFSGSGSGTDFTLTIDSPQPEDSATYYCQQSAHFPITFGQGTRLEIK | 43.5 % WT binding |
| Refmab #3 (antibody, V domains shown, The alanine scan used IgG or Fab) VH: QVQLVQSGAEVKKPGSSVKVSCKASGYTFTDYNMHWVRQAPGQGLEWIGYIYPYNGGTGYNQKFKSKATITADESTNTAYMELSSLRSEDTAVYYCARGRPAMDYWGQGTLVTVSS VL: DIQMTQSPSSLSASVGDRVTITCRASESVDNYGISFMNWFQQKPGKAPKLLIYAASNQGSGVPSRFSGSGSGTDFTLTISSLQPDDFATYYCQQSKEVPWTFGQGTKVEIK | 98.6 % WT binding |
| Refmab #1 (antibody, V domains shown, The alanine scan used IgG or Fab; also called hP67.6) VH: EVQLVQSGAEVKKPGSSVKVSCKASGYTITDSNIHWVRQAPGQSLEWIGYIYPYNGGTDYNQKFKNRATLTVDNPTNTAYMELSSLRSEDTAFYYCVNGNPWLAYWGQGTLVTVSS VL: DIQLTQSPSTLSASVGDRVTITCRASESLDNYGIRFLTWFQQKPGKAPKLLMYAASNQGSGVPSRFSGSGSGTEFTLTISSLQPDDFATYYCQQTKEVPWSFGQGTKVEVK | 80.2 % WT binding |
| Refmab #2 (antibody, V domains shown, The alanine scan used IgG or Fab) VH: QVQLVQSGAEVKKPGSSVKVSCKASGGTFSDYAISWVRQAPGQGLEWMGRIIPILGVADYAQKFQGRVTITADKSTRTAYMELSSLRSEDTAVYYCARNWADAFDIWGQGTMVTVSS VL: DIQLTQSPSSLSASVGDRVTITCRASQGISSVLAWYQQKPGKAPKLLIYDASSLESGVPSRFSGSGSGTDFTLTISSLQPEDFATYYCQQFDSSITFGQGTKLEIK | 56.8 % WT binding |

Cited source: patent US20260242735A1
